Biological target: PD-1/PD-L1 protein/protein interaction (Homo sapiens (Human), UniProt Q9NZQ7)
Sequence (Q9NZQ7 19-238): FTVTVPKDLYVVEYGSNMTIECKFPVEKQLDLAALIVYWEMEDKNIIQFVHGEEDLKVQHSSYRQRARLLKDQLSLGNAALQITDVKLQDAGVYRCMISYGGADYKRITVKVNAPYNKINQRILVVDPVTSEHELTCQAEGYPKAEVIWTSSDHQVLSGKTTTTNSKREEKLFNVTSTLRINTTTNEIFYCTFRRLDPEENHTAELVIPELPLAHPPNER
Assay: PD-1/PD-L1 Homogeneous Time-Resolved Fluorescence (HTRF) Binding Assay
Settings: recombinant human PD-L1 (19-238)-His and PD-1 (25-167)-Fc, 25° C., PBS pH 7.4
pIC50: −log10 of the molar value.
value kind: pIC50

Here are 5 compounds together with their reported answers.
compound: Cc1c(-c2ccccc2)cccc1-c1cn2nc(CN(C)CCO)cnc2n1 [Example 8]
pIC50: 6.30 to 7.00

compound: N#CCc1cc(CNCCO)cn2nc(-c3cccc(-c4ccc5c(c4)OCCO5)c3C#N)nc12 [Example 27]
pIC50: ≥ 7.00

compound: Cc1c(-c2ccccc2)cccc1-c1nc2ccc(CN3CCCC[C@H]3C(=O)O)cn2n1 [Example 19]
pIC50: 6.30 to 7.00

compound: Cc1c(-c2ccccc2)cccc1-c1nc2ccc(CNCCO)cn2n1 [Example 18]
pIC50: ≥ 7.00

compound: Cc1c(-c2ccccc2)cccc1-c1cn2nc(CNCCO)cnc2n1 [Example 5]
pIC50: ≥ 7.00

What value of pIC50 has been reported for the following compound? Cc1c(-c2ccccc2)cccc1-c1cn2cc(CNCCO)cnc2n1 [Example 12]
6.30 to 7.00

What value of pIC50 has been reported for the following compound? Cc1c(-c2ccccc2)cccc1-c1cn2cc(CNCCO)ncc2n1 [Example 13]
≥ 7.00

Need pIC50, item Cc1c(-c2ccccc2)cccc1-c1cn2nc(CNCCO)ccc2n1 [Example 15]
6.30 to 7.00

Fill in the blank: the reported pIC50 of Cc1c(-c2ccccc2)cccc1-c1cn2cc(CNCCO)ccc2n1 [Example 1] is ____.
6.30 to 7.00

Returns the measured pIC50 for the input compound. Input: Cc1c(-c2ccccc2)cccc1-c1cn2cc(CNCCO)cc(C)c2n1 [Example 9]
6.30 to 7.00

Look up pIC50: Cc1c(-c2ccccc2)cccc1-c1nc2c(CCCC#N)cc(CNCCO)cn2n1 [Example 23]
≥ 7.00

GET /values?readout=pIC50&item= Cc1c(-c2ccccc2)cccc1-c1cn2cc(CNCCO)cc(Cl)c2n1 [Example 11]
6.30 to 7.00

Would you kindly share the measured pIC50 for Cc1c(-c2ccccc2)cccc1-c1cc2cc(CN3CCCC[C@H]3C(=O)O)ccn2c1 [Example 3] ?
6.30 to 7.00

Can you look up the measured pIC50 of Cc1c(-c2ccccc2)cccc1-c1cn2nc(CN3CCCC[C@H]3C(=O)O)ccc2n1 [Example 14] for me?
5.00 to 6.30

Give its pIC50 value. Item: Cc1c(-c2ccccc2)cccc1-c1nc2c(Cl)cc(CNCCO)cn2n1 [Example 21]
≥ 7.00

Return reported pIC50; argument: Cc1c(-c2ccccc2)cccc1-c1cn2cc(CN3CCCC[C@H]3C(=O)O)cc(C)c2n1 [Example 10]
6.30 to 7.00

Any idea what pIC50 was measured for Cc1c(-c2ccccc2)cccc1-c1nc2cc(CNCCO)ccn2n1 [Example 16] ?
≥ 7.00

So what does the record say about pIC50 for Cc1c(-c2ccccc2)cccc1-c1cn2nc(CNCC#N)cnc2n1 [Example 6] ?
6.30 to 7.00

----------
Target: PD-1/PD-L1 protein/protein interaction (Homo sapiens (Human))
Assay: PD-1/PD-L1 Homogeneous Time-Resolved Fluorescence (HTRF) Binding Assay
Conditions: recombinant human PD-L1 (19-238)-His and PD-1 (25-167)-Fc, 25° C., PBS pH 7.4
value kind: IC50

A selection of reference data follows.
molecule: Cc1c(-c2ccccc2)cccc1-c1cc2cc(CNCCO)ccn2c1 [Example 2]
IC50: 0.1 to 0.5 µM
--
molecule: Cc1c(-c2ccccc2)cccc1-c1nc2c(CC#N)cc(CNCCO)cn2n1 [Example 24]
IC50: ≤ 0.1 µM
--
molecule: Cc1c(-c2ccccc2)cccc1-c1cc2cc(CN3CCCC[C@H]3C(=O)O)ncn2c1 [Example 4]
IC50: 0.5 to 10 µM
--
molecule: N#Cc1c(-c2ccc3c(c2)OCCO3)cccc1-c1nc2c(C#N)cc(CNCCO)cn2n1 [Example 26]
IC50: ≤ 0.1 µM

Kindly review the next molecule as well.
Quick one: IC50 of Cc1c(-c2ccccc2)cccc1-c1nc2cc(CN3CCCC[C@H]3C(=O)O)ccn2n1 [Example 17] ?
0.1 to 0.5 µM

All values here come from patent US11407749B2.
